experimental_system: α-β tubulin (β tubulin, porcine brain) (Sus scrofa, UniProt P02550+P02554)
Construct: α-β tubulin purified from porcine brains, labeled with RED-NHS; with α tubulin
Sequence (P02554 whole entry): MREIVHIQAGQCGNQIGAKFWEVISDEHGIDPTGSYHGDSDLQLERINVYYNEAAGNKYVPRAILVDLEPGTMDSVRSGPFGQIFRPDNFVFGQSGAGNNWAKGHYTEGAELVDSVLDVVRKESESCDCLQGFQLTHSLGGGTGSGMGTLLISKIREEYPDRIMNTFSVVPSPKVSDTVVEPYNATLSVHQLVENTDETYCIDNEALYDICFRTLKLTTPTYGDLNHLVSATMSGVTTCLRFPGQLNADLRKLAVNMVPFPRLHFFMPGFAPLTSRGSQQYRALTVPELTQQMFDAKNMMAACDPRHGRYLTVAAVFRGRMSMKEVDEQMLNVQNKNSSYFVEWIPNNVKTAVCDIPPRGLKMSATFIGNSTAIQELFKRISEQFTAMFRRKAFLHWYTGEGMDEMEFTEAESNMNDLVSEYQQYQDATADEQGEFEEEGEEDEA
Sequence (P02550 whole entry): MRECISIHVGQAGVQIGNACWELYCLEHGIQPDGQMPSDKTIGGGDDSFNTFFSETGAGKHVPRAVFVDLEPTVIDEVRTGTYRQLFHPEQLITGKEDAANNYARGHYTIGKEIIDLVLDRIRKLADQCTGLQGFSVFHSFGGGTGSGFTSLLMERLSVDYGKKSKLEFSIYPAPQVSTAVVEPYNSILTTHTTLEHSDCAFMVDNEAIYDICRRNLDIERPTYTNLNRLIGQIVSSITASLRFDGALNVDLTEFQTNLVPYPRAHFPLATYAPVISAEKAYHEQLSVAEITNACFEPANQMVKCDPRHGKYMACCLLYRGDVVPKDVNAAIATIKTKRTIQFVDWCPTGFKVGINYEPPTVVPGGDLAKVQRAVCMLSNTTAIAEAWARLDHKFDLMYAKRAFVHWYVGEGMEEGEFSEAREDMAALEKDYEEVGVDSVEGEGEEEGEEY
assay_info: microscale thermophoresis, labeled tubulin
readout: Kd (nM)

{"columns": ["compound", "readout", "unit_string", "observed"],
 "data": [
  ["COc1cc2c(=O)c(-c3cc(OC)c4c(c3OC)OCO4)coc2cc1OCc1ccccc1 [gatastatin]", "Kd", "nM", 2160]
]}

The origin of these recorded values is paper PMC10046562.
